# credit: ChEMBL document CHEMBL1132256

Parameter GI50: see the listing below.
# Test system: MCF7
# protocol_details: inhibitory activity against multi drug resistant MCF cell line.
# Format: functional
# study_conditions: Homo sapiens, in the assay text read “MCF7 cell line” for “multi drug resistant MCF cell line”

# sample_smiles, assayed_system, censoring_qualifier, GI50 / nM
data = [
    ("CN(CCCNC(=O)c1cccc2cc3c(Cl)cccc3nc12)CCCNC(=O)c1cccc2cc3c(Cl)cccc3nc12", "MCF7", "=", 614),
    ("Cc1cccc2cc3cccc(C(=O)NCCCN(C)CCCNC(=O)c4cccc5cc6cccc(C)c6nc45)c3nc12", "MCF7", "<", 10),
    ("CN(CCCNC(=O)c1cccc2cc3cccc(-c4ccccc4)c3nc12)CCCNC(=O)c1cccc2cc3cccc(-c4ccccc4)c3nc12", "MCF7", "=", 1020),
    ("Cc1ccc(C(=O)NCCCN(C)CCCNC(=O)c2ccc(C)c3cc4ccccc4nc23)c2nc3ccccc3cc12", "MCF7", "=", 54),
    ("CN(CCCNC(=O)c1cccc2cc3cccc(F)c3nc12)CCCNC(=O)c1cccc2cc3cccc(F)c3nc12", "MCF7", "<", 10),
    ("Cc1cc(C(=O)NCCCN(C)CCCNC(=O)c2cc(C)cc3cc4ccccc4nc23)c2nc3ccccc3cc2c1", "MCF7", "=", 546),
    ("CCc1cccc2cc3cccc(C(=O)NCCCN(C)CCCNC(=O)c4cccc5cc6cccc(CC)c6nc45)c3nc12", "MCF7", "=", 265),
    ("COc1cccc2cc3cccc(C(=O)NCCCN(C)CCCNC(=O)c4cccc5cc6cccc(OC)c6nc45)c3nc12", "MCF7", "=", 394),
]

###

# System: P388
# protocol_details: Inhibitory activity against Murine […]
# Assay type: functional, cell-based
# study_conditions: Mus musculus
pIC50: −log10 of the molar value.
Listed next: entries and their corresponding pIC50.
result_type: pIC50

# sample_smiles, value_observed
records = [
    ("COc1ccc2cc3cccc(C(=O)NCCCN(C)CCCNC(=O)c4cccc5cc6ccc(OC)cc6nc45)c3nc2c1", 7.12),
    ("CN(CCCNC(=O)c1cccc2cc3cccc(F)c3nc12)CCCNC(=O)c1cccc2cc3cccc(F)c3nc12", 7.80),
    ("Cc1ccc(Cl)c2cc3cccc(C(=O)NCCCN(C)CCCNC(=O)c4cccc5cc6c(Cl)ccc(C)c6nc45)c3nc12", 7.39),
]

###

# Tested on: NCI/ADR-RES
# protocol_details: inhibitory activity against multi drug resistant NCI/ADR cell line.
# Format: functional
# study_conditions: Homo sapiens
Listed below: GI50 values for each entry.

# sample_smiles, GI50 / nM
data = [
    ("CN(CCCNC(=O)c1c(Cl)ccc2cc3ccccc3nc12)CCCNC(=O)c1c(Cl)ccc2cc3ccccc3nc12", 37000),
    ("Cc1ccc(C)c2nc3c(C(=O)NCCCN(C)CCCNC(=O)c4cccc5cc6c(C)ccc(C)c6nc45)cccc3cc12", 172),
    ("Cc1ccc2nc3c(C(=O)NCCCN(C)CCCNC(=O)c4cccc5cc6cc(C)ccc6nc45)cccc3cc2c1", 480),
]

###

# Tested on: HT-29
# protocol_details: inhibitory activity against colon HT-29 cell line.
# Type: functional
# study_conditions: Homo sapiens
# Lookup of reported GI50 keyed by entry
result_type: GI50 (nM)

# sample_smiles, result_type, censoring_qualifier, value_observed
data = [
    ("CN(CCCNC(=O)c1cccc2cc3cccc(C(F)(F)F)c3nc12)CCCNC(=O)c1cccc2cc3cccc(C(F)(F)F)c3nc12", "GI50", "=", 33),
    ("Cc1ccc2nc3c(C(=O)NCCCN(C)CCCNC(=O)c4cccc5cc6cc(C)ccc6nc45)cccc3cc2c1", "GI50", "=", 34),
    ("CN(CCCNC(=O)c1cccc2cc3cccc(Br)c3nc12)CCCNC(=O)c1cccc2cc3cccc(Br)c3nc12", "GI50", "<", 10),
    ("Cc1cc(C(=O)NCCCN(C)CCCNC(=O)c2cc(C)cc3cc4ccccc4nc23)c2nc3ccccc3cc2c1", "GI50", "=", 265),
]
